Where do the numbers come from? From the supplement of paper PMC3334620.

system.tested: Yer064c (UniProt P40041)
Sequence: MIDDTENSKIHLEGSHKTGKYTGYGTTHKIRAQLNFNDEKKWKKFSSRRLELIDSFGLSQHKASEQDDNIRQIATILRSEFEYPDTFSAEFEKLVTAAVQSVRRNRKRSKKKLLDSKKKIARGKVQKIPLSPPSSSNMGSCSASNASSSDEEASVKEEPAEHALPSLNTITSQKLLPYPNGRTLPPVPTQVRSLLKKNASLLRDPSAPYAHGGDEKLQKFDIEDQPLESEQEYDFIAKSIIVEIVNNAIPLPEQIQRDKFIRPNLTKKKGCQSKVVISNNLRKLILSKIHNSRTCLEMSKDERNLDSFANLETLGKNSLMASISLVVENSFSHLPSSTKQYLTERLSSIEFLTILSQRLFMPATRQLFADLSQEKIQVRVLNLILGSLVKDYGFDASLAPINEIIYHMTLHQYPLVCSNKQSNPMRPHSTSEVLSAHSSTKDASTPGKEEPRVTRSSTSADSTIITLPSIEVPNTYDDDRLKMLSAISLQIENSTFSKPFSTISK
procedure.summary: PBM E-score (8-mer binding enrichment) (E-score (-0.5 to 0.5)); higher = stronger / more preferred TF binding
run.conditions: protein concentration: 200 nM; construct: GST-full length
Over roughly 33,000 sequences, “E-score (-0.5 to 0.5)” has its median near -0.036; the highest 2% begin near 0.37. For the sample, the highest values were picked, then their nearest neighbours and some sequences at random.
Could you please report measured PBM E-score for the items listed next?
Numbers only.

As a guide, the following entries are already answered.
sequence.record	PBM E-score
ATGGGCTG	-0.0763
AAGGGATG	-0.176
ATCTTCCG	-0.0471
TCAAAGCA	0.0603
CTGTGGAA	0.0224

For every listed record, write down its PBM E-score.
1. AACCAACC
2. ATAGCTGC
3. CGTTCCAC

Response:
[-0.128, 0.00331, -0.25]
